method: compounds altering HSF1 focus formation in cells – imaging, Selleck Cancer Library (AID 1347162)
statedConditions: human cells, HSF1 nuclear foci imaging, at 10 µM; measured here: cell number
Listing of entries alongside the reported cell count.
measuredEndpoint: cell count

INSERT INTO assay_data (compound, experimentalvalue) VALUES
  ('N#C/C(=C1/Nc2ccccc2S1)c1ccnc(NCCc2cccnc2)n1', 6770),
  ('C=C1/C(=C/C=C2\CCC[C@]3(C)[C@@H]([C@H](C)/C=C/[C@@H](C)C(C)C)CC[C@@H]23)C[C@@H](O)C[C@@H]1O', 6600),
  ('O=C1c2ccccc2C(=O)c2c(NCCc3ccc(O)cc3)ccc(NCCc3ccc(O)cc3)c21', 6780),
  ('C=CC(=O)N1CCCC(n2nc(-c3ccc(Oc4ccccc4)cc3)c3c(N)ncnc32)C1 (stereo not drawn)', 7290),
  ('OC[C@H]1O[C@@H](n2cnc3c2NC=NC[C@H]3O)CC1O (stereo partly drawn)', 7070),
  ('O=C1c2ccccc2-c2nc3nonc3nc21', 3090),
  ('COc1c/c(=C2/C=c3ccccc3=N2)[nH]/c1=C\c1[nH]c(C)cc1C', 7490),
  ('CO[C@H]1C[C@@H]2CC[C@@H](C)[C@@](O)(O2)C(=O)C(=O)N2CCCC[C@H]2C(=O)O[C@H]([C@@H](C)C[C@@H]2CC[C@@H](OCCO)[C@H](OC)C2)CC(=O)[C@H](C)/C=C(\C)[C@@H](O)[C@@H](OC)C(=O)[C@H](C)C[C@H](C)/C=C/C=C/C=C/1C', 6750),
  ('CC1=NN(c2ccc(C(=O)O)cc2)C(=O)/C1=C\c1ccc(-c2cc(C)c(C)cc2[N+](=O)[O-])o1', 6690),
  ('Cc1oc(S(=O)(=O)N2CCCCC2)cc1NC(=O)Nc1ccccc1', 6950),
  ('Nc1ncnc2c1c(-c1ccc(Oc3ccccc3)cc1)cn2C1CCCC1', 6750),
  ('N=C(N)SCCc1ccc(CCSC(=N)N)cc1', 7320),
  ('COC(=O)c1ccc(O)c(NC(=O)COc2ccc(C34CC5CC(CC(C5)C3)C4)cc2)c1', 7200),
  ('O=C1Nc2ccc(-c3cccnc3)cc2/C1=C/c1ccc[nH]1', 7060),
  ('COC(=O)[C@H](CCCN=C(N)N)NS(=O)(=O)c1ccc(C)cc1', 7120),
  ('COc1cc(C(=O)NC(=S)Nc2cccc(NC(=O)c3ccccc3)c2)cc(OC)c1OC', 6830),
  ('CCCCCCCCCCCCCCCCCCOP(=O)(O)OC1CC[N+](C)(C)CC1', 7160),
  ('N[C@@H]1CCCC[C@H]1N.O=C(O)C(=O)O.[Pt]', 7520);
